Details: 319.16 K; 101.33 kPa; Liquid; Pulse-echo method
Recorded metric: speed of sound (m/s)
Numbers only, in m/s.

1) CCC(=O)[O-].C[NH2+]CCO [2-hydroxy-N-methylethanaminium propionate] : 1628
2) C[NH2+]CCO.O=C[O-] [2-hydroxy-N-methylethanaminium formate] : 1774.4
3) CCCC(=O)[O-].C[NH2+]CCO [N-methyl-2-hydroxyethylammonium butanoate] : 1548.7
4) CCCCC(=O)[O-].C[NH2+]CCO [2-hydroxy-N-methylethanaminium pentanoate] : 1483.8

# ---- query compound ----
Suppose we examine the compound CC(C)C(=O)[O-].C[NH2+]CCO [2-hydroxy-N-methylethanaminium isobutyrate] ; what speed of sound value has been reported?
1552

----------
Conditions: 290.4 K; 101.33 kPa; Liquid; Pulse-echo method
Numbers after ± are expanded uncertainties.
For each entry below, report its speed of sound value.

Some molecules with known speed of sound results, for comparison:
1. C[NH2+]CCO.O=C[O-] [2-hydroxy-N-methylethanaminium formate] : 1830.5 ± 2.2 m/s
2. CCCCC(=O)[O-].C[NH2+]CCO [2-hydroxy-N-methylethanaminium pentanoate] : 1573.7 ± 2.1 m/s

Please give speed of sound, item by item, for the list that follows.
1. CC(C)C(=O)[O-].C[NH2+]CCO [2-hydroxy-N-methylethanaminium isobutyrate]
2. CCCC(=O)[O-].C[NH2+]CCO [N-methyl-2-hydroxyethylammonium butanoate]
3. CCC(=O)[O-].C[NH2+]CCO [2-hydroxy-N-methylethanaminium propionate]

["1633.4 ± 2.1 m/s", "1639.7 ± 2.1 m/s", "1713.2 ± 2.2 m/s"]

----------
Exercise: state measured speed of sound for each of the molecules provided.
Conditions: 279.15 K; 101.33 kPa; Liquid; Pulse-echo method
Answers are plain numbers, in m/s.

Previously resolved entries follow.
1) CC(C)C(=O)[O-].C[NH2+]CCO [2-hydroxy-N-methylethanaminium isobutyrate] : 1667
2) C[NH2+]CCO.O=C[O-] [2-hydroxy-N-methylethanaminium formate] : 1852.7
3) CCC(=O)[O-].C[NH2+]CCO [2-hydroxy-N-methylethanaminium propionate] : 1749
4) CCCC(=O)[O-].C[NH2+]CCO [N-methyl-2-hydroxyethylammonium butanoate] : 1679.6

Now, please, on to the next molecule.
# lookup: speed of sound of CCCCC(=O)[O-].C[NH2+]CCO [2-hydroxy-N-methylethanaminium pentanoate]
1612.8

----------
Conditions: 324.16 K; 101.33 kPa; Liquid; Vibrating tube method
Hi there, I'd appreciate the recorded mass density for every entry that follows.
Numbers only, in kg/m3.

1. CC(C)C(=O)[O-].C[NH2+]CCO [2-hydroxy-N-methylethanaminium isobutyrate] : 1026.36
2. CCCC(=O)[O-].C[NH2+]CCO [N-methyl-2-hydroxyethylammonium butanoate] : 1021.56
3. CCCCC(=O)[O-].C[NH2+]CCO [2-hydroxy-N-methylethanaminium pentanoate] : 998.543
4. CCC(=O)[O-].C[NH2+]CCO [2-hydroxy-N-methylethanaminium propionate] : 1054.15
5. C[NH2+]CCO.O=C[O-] [2-hydroxy-N-methylethanaminium formate] : 1113.79

Here is another compound to look at.
So what does the record say about mass density for CC(=O)[O-].C[NH2+]CCO [N-methyl-2-hydroxyethylammonium acetate] ?
1085

----------
Conditions: 333.16 K; 101.33 kPa; Liquid; Pulse-echo method
For each record, write down the corresponding speed of sound.
One number for each entry, in m/s.

Solved entries:
1) C[NH2+]CCO.O=C[O-] [2-hydroxy-N-methylethanaminium formate] : 1747.5
2) CC(C)C(=O)[O-].C[NH2+]CCO [2-hydroxy-N-methylethanaminium isobutyrate] : 1511.9
3) CCCCC(=O)[O-].C[NH2+]CCO [2-hydroxy-N-methylethanaminium pentanoate] : 1440.8
4) CCCC(=O)[O-].C[NH2+]CCO [N-methyl-2-hydroxyethylammonium butanoate] : 1504.9

What value of speed of sound has been recorded for this entry: CCC(=O)[O-].C[NH2+]CCO [2-hydroxy-N-methylethanaminium propionate]
1585.7

----------
For each record, write down the corresponding mass density.
Conditions: 284.15 K; 101.33 kPa; Liquid; Vibrating tube method
Numbers after ± are expanded uncertainties.

For every item below, please supply its mass density.
1. CC(C)C(=O)[O-].C[NH2+]CCO [2-hydroxy-N-methylethanaminium isobutyrate]
2. CC(=O)[O-].C[NH2+]CCO [N-methyl-2-hydroxyethylammonium acetate]
3. CCCCC(=O)[O-].C[NH2+]CCO [2-hydroxy-N-methylethanaminium pentanoate]
4. CCC(=O)[O-].C[NH2+]CCO [2-hydroxy-N-methylethanaminium propionate]
5. CCCC(=O)[O-].C[NH2+]CCO [N-methyl-2-hydroxyethylammonium butanoate]
6. C[NH2+]CCO.O=C[O-] [2-hydroxy-N-methylethanaminium formate]

1052.27 ± 2.2 kg/m3
1109.22 ± 2.2 kg/m3
1025.67 ± 2.2 kg/m3
1080.39 ± 2.2 kg/m3
1048.68 ± 2.2 kg/m3
1136.07 ± 2.2 kg/m3

----------
Settings: 319.16 K; 101.33 kPa; Liquid; Vibrating tube method
Recorded metric: mass density (kg/m3)
One number for each entry, in kg/m3.

Worked examples follow.
1) C[NH2+]CCO.O=C[O-] [2-hydroxy-N-methylethanaminium formate] : 1116.55
2) CCC(=O)[O-].C[NH2+]CCO [2-hydroxy-N-methylethanaminium propionate] : 1057.51
3) CC(=O)[O-].C[NH2+]CCO [N-methyl-2-hydroxyethylammonium acetate] : 1088.1

List mass density for every entry below, keeping the order given.
1. CCCC(=O)[O-].C[NH2+]CCO [N-methyl-2-hydroxyethylammonium butanoate]
2. CC(C)C(=O)[O-].C[NH2+]CCO [2-hydroxy-N-methylethanaminium isobutyrate]
3. CCCCC(=O)[O-].C[NH2+]CCO [2-hydroxy-N-methylethanaminium pentanoate]

1. 1025.03
2. 1029.7
3. 1002

----------
Details: 304.91 K; 101.33 kPa; Liquid; Vibrating tube method
So I've got a bunch of compounds here, and I need their mass density values.
Give bare numbers, in kg/m3.

Example entries and their recorded answers appear below.
1) CCCC(=O)[O-].C[NH2+]CCO [N-methyl-2-hydroxyethylammonium butanoate] : 1034.71
2) CC(C)C(=O)[O-].C[NH2+]CCO [2-hydroxy-N-methylethanaminium isobutyrate] : 1039.03
3) CC(=O)[O-].C[NH2+]CCO [N-methyl-2-hydroxyethylammonium acetate] : 1096.79
4) CCC(=O)[O-].C[NH2+]CCO [2-hydroxy-N-methylethanaminium propionate] : 1066.92
5) CCCCC(=O)[O-].C[NH2+]CCO [2-hydroxy-N-methylethanaminium pentanoate] : 1011.7

Next compound, mass density to be filled in.
Looking for the measured mass density of C[NH2+]CCO.O=C[O-] [2-hydroxy-N-methylethanaminium formate] , can you help?
1124.48

----------
Conditions: 317.4 K; 101.33 kPa; Liquid; Vibrating tube method
Recorded metric: mass density (kg/m3)
Numbers only, in kg/m3.

Here is how some compounds turned out for mass density.
1. CCCCC(=O)[O-].C[NH2+]CCO [2-hydroxy-N-methylethanaminium pentanoate] : 1003.21
2. C[NH2+]CCO.O=C[O-] [2-hydroxy-N-methylethanaminium formate] : 1117.52
3. CC(C)C(=O)[O-].C[NH2+]CCO [2-hydroxy-N-methylethanaminium isobutyrate] : 1030.86
4. CCC(=O)[O-].C[NH2+]CCO [2-hydroxy-N-methylethanaminium propionate] : 1058.67
5. CCCC(=O)[O-].C[NH2+]CCO [N-methyl-2-hydroxyethylammonium butanoate] : 1026.23

Switching to the query record.
Which mass density value is on record for CC(=O)[O-].C[NH2+]CCO [N-methyl-2-hydroxyethylammonium acetate] ?
1089.18

----------
Settings: 302.4 K; 101.33 kPa; Liquid; Pulse-echo method
Numbers after ± are expanded uncertainties.
Recorded metric: speed of sound

These solved cases illustrate the format of a correct answer.
1. CCCC(=O)[O-].C[NH2+]CCO [N-methyl-2-hydroxyethylammonium butanoate] : 1601 ± 2.1 m/s
2. C[NH2+]CCO.O=C[O-] [2-hydroxy-N-methylethanaminium formate] : 1807 ± 2.2 m/s
3. CCCCC(=O)[O-].C[NH2+]CCO [2-hydroxy-N-methylethanaminium pentanoate] : 1535.4 ± 2.1 m/s
4. CC(C)C(=O)[O-].C[NH2+]CCO [2-hydroxy-N-methylethanaminium isobutyrate] : 1599.3 ± 2.1 m/s

So what's the measured speed of sound for this one? CCC(=O)[O-].C[NH2+]CCO [2-hydroxy-N-methylethanaminium propionate]
1677.4 ± 2.2 m/s

----------
Settings: 289.9 K; 101.33 kPa; Liquid; Pulse-echo method
Numbers after ± are expanded uncertainties.
For each of the molecules below, state its speed of sound.

These recorded examples may help you get a feel for the data.
1. CCCC(=O)[O-].C[NH2+]CCO [N-methyl-2-hydroxyethylammonium butanoate] : 1641.4 ± 2.1 m/s
2. CCCCC(=O)[O-].C[NH2+]CCO [2-hydroxy-N-methylethanaminium pentanoate] : 1575.3 ± 2.1 m/s

Working through the 3 molecules below one at a time, give speed of sound for each.
1. C[NH2+]CCO.O=C[O-] [2-hydroxy-N-methylethanaminium formate]
2. CC(C)C(=O)[O-].C[NH2+]CCO [2-hydroxy-N-methylethanaminium isobutyrate]
3. CCC(=O)[O-].C[NH2+]CCO [2-hydroxy-N-methylethanaminium propionate]

1. 1831.5 ± 2.2 m/s
2. 1634.9 ± 2.1 m/s
3. 1714.7 ± 2.2 m/s
